Test system: oedema caused by the sub-plantar injection of carraghenin
Assay: Antiinflammatory: reduction of sub-plantar oedema caused by carraghenin, rat
Type: in vivo
Conditions: 100 mg/Kg/p.o.
Reported Percentage reduction of sub-plantar oedema is given for each of the following compounds.
Give the number; % is assumed, so skip it.

Fill in Percentage reduction of sub-plantar oedema for record CCN(CC)Cc1nc2ccccc2n1CCC(=O)c1ccc(Cl)cc1 60

Fill in Percentage reduction of sub-plantar oedema for record Cc1ccc(C(=O)CCn2c(CN3CCOCC3)nc3ccccc32)c(C)c1 40

* * *

Test: Lethal doses / percentage mortality, oral
Format: in vivo
Conditions: in vivo, po; 1 250 mg/Kg/p.o.
Value kind: mortality

Fill in mortality for record CCN(CC)Cc1nc2ccccc2n1CCC(=O)c1ccccc1 [72 573] ~50%

* * *

System: painful stretchings caused by the intraperitoneal injection of acetic acid
Assay: Analgesic: reduction of painful stretchings caused by intraperitoneal acetic acid, oral, mouse
Assay type: in vivo
Conditions: 100 mg/Kg/p.o.
Decision: Percentage reduction of number of painful stretchings >= 60% yields yes (1), all other cases yield no (0).

I'd appreciate it if you could say whether CCCCOc1ccc(C(=O)CCn2c(CN3CCOCC3)nc3ccccc32)cc1 has Percentage reduction of number of painful stretchings at least equal to 60%. no (0)

I'd appreciate it if you could say whether O=C(CCn1c(CN2CCCCC2)nc2ccccc21)c1ccccc1 has Percentage reduction of number of painful stretchings at least equal to 60%. yes (1)

I'd appreciate it if you could say whether O=C(CCn1c(CN2CCCCC2)nc2ccccc21)c1ccc(F)cc1 has Percentage reduction of number of painful stretchings at least equal to 60%. yes (1)

I'd appreciate it if you could say whether CCN(CC)Cc1nc2ccccc2n1CCC(=O)c1ccc(C)cc1.O=C(O)/C=C\C(=O)O has Percentage reduction of number of painful stretchings at least equal to 60%. no (0)

I'd appreciate it if you could say whether COc1ccc(C(=O)CCn2c(CN3CCCC3)nc3ccccc32)cc1OC has Percentage reduction of number of painful stretchings at least equal to 60%. yes (1)

* * *

System: bronchoconstriction provoked in the guinea-pig by acetylcholine
Assay: Antibronchoconstrictive and anticholinergic: bronchoconstriction by intravenous acetylcholine, Konzett method
Type: in vivo
Details: 100 mg/kg/i.d.
Decision: Percentage inhibition of bronchoconstriction >= 80% yields satisfied, all other cases yield not satisfied.

{"Sample smiles": "O=C(CCn1c(CN2CCOCC2)nc2ccccc21)c1ccc(F)cc1.O=C(O)/C=C\\C(=O)O", "Label class": "not satisfied"}
{"Sample smiles": "O=C(CCn1c(CN2CCCC2)nc2ccccc21)c1ccc(F)cc1", "Label class": "satisfied"}
{"Sample smiles": "Cc1ccc(C(=O)CCn2c(CN3CCCCC3)nc3ccccc32)c(C)c1", "Label class": "not satisfied"}
{"Sample smiles": "Cc1ccc(C(=O)CCn2c(CN3CCOCC3)nc3ccccc32)c(C)c1", "Label class": "not satisfied"}
{"Sample smiles": "O=C(CCn1c(CN2CCCCC2)nc2ccccc21)c1ccc(F)cc1", "Label class": "not satisfied"}
{"Sample smiles": "COc1cc(C(=O)CCn2c(CN3CCCC3)nc3ccccc32)cc(OC)c1OC", "Label class": "not satisfied"}
{"Sample smiles": "COc1ccc(C(=O)CCn2c(CN3CCOCC3)nc3ccccc32)cc1OC", "Label class": "satisfied"}
{"Sample smiles": "CCCCOc1ccc(C(=O)CCn2c(CN(CC)CC)nc3ccccc32)cc1", "Label class": "satisfied"}

# ---- query molecule ----
I'd appreciate it if you could say whether COc1cc(C(=O)CCn2c(CN(C)C)nc3ccccc32)cc(OC)c1OC has Percentage inhibition of bronchoconstriction at least equal to 80%. not satisfied

* * *

Tested on: oedema caused by the sub-plantar injection of carraghenin
Assay: Antiinflammatory: reduction of sub-plantar oedema caused by carraghenin, rat
Type: in vivo
Details: 100 mg/Kg/p.o.
Hi! Could you tag entries with Percentage reduction of sub-plantar oedema below 60% as y, and those at or above as n? Much appreciated.

Here are 3 molecules together with their reported answers.
{"Sample smiles": "Cc1ccc(C(=O)CCn2c(CN(C)C)nc3ccccc32)c(C)c1", "Label class": "n"}
{"Sample smiles": "O=C(CCn1c(CN2CCOCC2)nc2ccccc21)c1ccccc1", "Label class": "y"}
{"Sample smiles": "O=C(CCn1c(CN2CCOCC2)nc2ccccc21)c1ccc(F)cc1.O=C(O)/C=C\\C(=O)O", "Label class": "y"}

# ---- query molecule ----
Take the molecule O=C(CCn1c(CN2CCCCCC2)nc2ccccc21)c1ccc(F)cc1 and say whether its Percentage reduction of sub-plantar oedema is less than 60%. y

* * *

Reported Percentage reduction of number of painful stretchings is given for each of the following compounds.
System: painful stretchings caused by the intraperitoneal injection of acetic acid
Assay: Analgesic: reduction of painful stretchings caused by intraperitoneal acetic acid, oral, mouse
Assay type: in vivo
Details: 100 mg/Kg/p.o.
Method: The compounds of formula (I), administered by oral means to the mouse, are capable of reducing the number of painful stretchings caused by the intraperitoneal injection of acetic acid. By way of example, the following Table III lists the results obtained by administration of 100 mg/Kg/p.o. of different compounds of formula (I).
Give the number; % is assumed, so skip it.

{"Compound": "O=C(CCn1c(CN2CCCC2)nc2ccccc21)c1ccc(F)cc1 [72 708]", "Study system": "painful stretchings caused by the intraperitoneal injection of acetic acid", "Value measured": 60}
{"Compound": "COc1ccc(C(=O)CCn2c(CN3CCOCC3)nc3ccccc32)cc1OC [72 391]", "Study system": "painful stretchings caused by the intraperitoneal injection of acetic acid", "Value measured": 60}

Would you kindly look at the next entry?
Fill in Percentage reduction of number of painful stretchings for record CN(C)Cc1nc2ccccc2n1CCC(=O)c1ccc(F)cc1.O=C(O)/C=C\C(=O)O [72 663] 60
